- assayProcedure: Fluorescence emission spectra and quantum yields (comparative method)
- Assay type: physicochemical
- measurementContext: H2O, against A1 standard
reportedProperty: Fluorescence Quantum Yield

# count of solved cases: 3
{"compound": "CC[N+]1(CC)CN2C(=N1)C(C(=O)NCCCCCN=[N+]=[N-])=Cc1ccccc12.[Br-]", "reportedMeasurement": 0.60}
{"compound": "CC[N+]1(CC)CN2C(=N1)C(C(=O)NCCCCCn1cc(CO)nn1)=Cc1ccccc12.[Br-]", "reportedMeasurement": 0.55}
{"compound": "CC[N+]1(CC)CN2C(=N1)C(C(=O)NCc1cn(C3CC(n4cc(C)c(=O)[nH]c4=O)OC3CO)nn1)=Cc1ccccc12 (stereo not drawn)", "reportedMeasurement": 0.59}

I. C#CCNC(=O)C1=C(C)C=C(C)N2C[N+](CC)(CC)N=C12.[Br-]
II. CCCCCCCCCCCCCCn1cc(CNC(=O)C2=C(C)C=C(C)N3C[N+](CC)(CC)N=C23)nn1.[Br-]
III. C#CCNC(=O)C1=Cc2ccccc2N2C[N+](CC)(CC)N=C12.[Br-]
input: Ascending sort, Fluorescence Quantum Yield. Put the labels in the order asked and list them.
output: II, III, I
(II: 0.28, III: 0.62, I: 1.00)

###

- assayProcedure: MTT cell viability assay, NIH-3T3 cells
- Assay type: cell-based
- measurementContext: mouse, 24 h incubation, read-out: IC50 (cytotoxicity, cell viability)
Measured IC50 at 24 h by item
Number in µM, nothing else.

# count of solved cases: 3
{"structureNotation": "C#CCNC(=O)C1=Cc2ccccc2N2C[N+](CCCCCCCC)(CCCCCCCC)N=C12", "IC50 at 24 h, µM": 8.7}
{"structureNotation": "CCCCCCCC[N+]1(CCCCCCCC)CN2C(C)=CC(C)=C(C(=O)NCCCCCN=[N+]=[N-])C2=N1", "IC50 at 24 h, µM": 26.4}
{"structureNotation": "CCCCCCCC[N+]1(CCCCCCCC)CN2C(=N1)C(C(=O)NCCCCCN=[N+]=[N-])=Cc1ccccc12", "IC50 at 24 h, µM": 13}

Okay, next one:
input: Look up IC50 at 24 h for this compound: C#CCNC(=O)C1=C(C)C=C(C)N2C[N+](CCCCCCCC)(CCCCCCCC)N=C12
output: 17.5

###

- assayProcedure: Fluorescence emission spectra and quantum yields (comparative method)
- Format: physicochemical
- measurementContext: H2O, 1·10^-6 mol/dm^3, 365 nm excitation
reportedProperty: λ Emission (nm)

{"compound": "CCCCCCCCCCCCCCn1cc(CNC(=O)C2=C(C)C=C(C)N3C[N+](CC)(CC)N=C23)nn1.[Br-]", "reportedProperty": "λ Emission", "unitSpec": "nm", "reportedMeasurement": 446}
{"compound": "CC[N+]1(CC)CN2C(=N1)C(C(=O)NCCCCCn1cc(CO)nn1)=Cc1ccccc12.[Br-]", "reportedProperty": "λ Emission", "unitSpec": "nm", "reportedMeasurement": 459}
{"compound": "C#CCNC(=O)C1=C(C)C=C(C)N2C[N+](CC)(CC)N=C12.[Br-]", "reportedProperty": "λ Emission", "unitSpec": "nm", "reportedMeasurement": 446}
{"compound": "CC[N+]1(CC)CN2C(=N1)C(C(=O)NCCCCCN=[N+]=[N-])=Cc1ccccc12.[Br-]", "reportedProperty": "λ Emission", "unitSpec": "nm", "reportedMeasurement": 459}
{"compound": "CC[N+]1(CC)CN2C(=N1)C(C(=O)NCc1cn(C3CC(n4cc(C)c(=O)[nH]c4=O)OC3CO)nn1)=Cc1ccccc12 (stereo not drawn)", "reportedProperty": "λ Emission", "unitSpec": "nm", "reportedMeasurement": 462}
{"compound": "C#CCNC(=O)C1=Cc2ccccc2N2C[N+](CC)(CC)N=C12.[Br-]", "reportedProperty": "λ Emission", "unitSpec": "nm", "reportedMeasurement": 462}

###

- assayProcedure: Fluorescence emission spectra and quantum yields (comparative method)
- Assay type: physicochemical
- measurementContext: Acetonitrile, 1·10^-6 mol/dm^3, 365 nm excitation
reportedProperty: λ Emission (nm)

{"compound": "CC[N+]1(CC)CN2C(=N1)C(C(=O)NCCCCCN=[N+]=[N-])=Cc1ccccc12.[Br-] [Compound 8]", "λ Emission, nm": 452}
{"compound": "C#CCNC(=O)C1=Cc2ccccc2N2C[N+](CC)(CC)N=C12.[Br-] [Compound 3]", "λ Emission, nm": 455}
{"compound": "C#CCNC(=O)C1=C(C)C=C(C)N2C[N+](CC)(CC)N=C12.[Br-] [Compound 1]", "λ Emission, nm": 443}
{"compound": "CC[N+]1(CC)CN2C(=N1)C(C(=O)NCCCCCn1cc(CO)nn1)=Cc1ccccc12.[Br-] [Compound 15]", "λ Emission, nm": 454}
{"compound": "CCCCCCCCCCCCCCn1cc(CNC(=O)C2=C(C)C=C(C)N3C[N+](CC)(CC)N=C23)nn1.[Br-] [Compound 11]", "λ Emission, nm": 443}
{"compound": "CC[N+]1(CC)CN2C(=N1)C(C(=O)NCc1cn(C3CC(n4cc(C)c(=O)[nH]c4=O)OC3CO)nn1)=Cc1ccccc12 (stereo not drawn) [Compound 13]", "λ Emission, nm": 452}

###

- assayProcedure: Fluorescence emission spectra and quantum yields (comparative method)
- Format: physicochemical
- measurementContext: Acetonitrile, against A1 standard
reportedProperty: Fluorescence Quantum Yield

# count of solved cases: 4
{"molecule": "CCCCCCCCCCCCCCn1cc(CNC(=O)C2=C(C)C=C(C)N3C[N+](CC)(CC)N=C23)nn1.[Br-]", "Fluorescence Quantum Yield": 0.86}
{"molecule": "CC[N+]1(CC)CN2C(=N1)C(C(=O)NCCCCCn1cc(CO)nn1)=Cc1ccccc12.[Br-]", "Fluorescence Quantum Yield": 0.53}
{"molecule": "C#CCNC(=O)C1=C(C)C=C(C)N2C[N+](CC)(CC)N=C12.[Br-]", "Fluorescence Quantum Yield": 0.86}
{"molecule": "C#CCNC(=O)C1=Cc2ccccc2N2C[N+](CC)(CC)N=C12.[Br-]", "Fluorescence Quantum Yield": 0.71}

1. CC[N+]1(CC)CN2C(=N1)C(C(=O)NCc1cn(C3CC(n4cc(C)c(=O)[nH]c4=O)OC3CO)nn1)=Cc1ccccc12 (stereo not drawn)
2. CC[N+]1(CC)CN2C(=N1)C(C(=O)NCCCCCN=[N+]=[N-])=Cc1ccccc12.[Br-]
input: Larger number for Fluorescence Quantum Yield: 1 , or 2 ? Reply briefly: the label of your chosen item.
output: 2
(2: 0.68, 1: 0.45)

###

- assayProcedure: Chemical stability of aqueous solution in daylight, RP-HPLC with fluorescence detection
- Format: physicochemical
- measurementContext: 10^-6 M aqueous solution exposed to natural daylight
reportedProperty: half-life

input: Look up half-life for this compound: C#CCNC(=O)C1=C(C)C=C(C)N2C[N+](CC)(CC)N=C12.[Br-]
output: ~168 h
